Where do these numbers come from? They come from patent US11795460B2.

# Tested on: TTR
# experiment_notes: TTR editing in primary cyno hepatocytes electroporated with Spy Cas9 protein and sgRNAs (Tables 14, 15)
# Assay type: cell-based, cynomolgus monkey
# protocol_conditions: Table 14; primary cyno hepatocytes electroporated with Spy Cas9 protein (RNP) and sgRNAs
Strand notation (5' to 3'): a small letter for the sugar, then the base; units joined by * are phosphorothioate-linked, units joined directly phosphodiester-linked; [ ] holds rarer units or linkages, { } end groups; capitals alone tell only the bases. m = 2'-O-methyl; r = 2'-OH (RNA)
Just a reminder that ties go to false (0): only Avg % Insert strictly below 50% counts as true (1).

Query :: Hello, I'm reviewing records and need to know if Avg % Insert of G000488: TTR sgRNA modified sequence, Human, SEQ ID No. 95; guide sequence of CR003346 (nucleic acid) guide: mA*mA*mA*rGrUrUrCrUrArGrArUrGrCrUrGrUrCrCrGrGrUrUrUrUrArGrAmGmCmUmAmGmAmAmAmUmAmGmCrArArGrUrUrArArArArUrArArGrGrCrUrArGrUrCrCrGrUrUrArUrCrAmAmCmUmUmGmAmAmAmAmAmGmUmGmGmCmAmCmCmGmAmGmUmCmGmGmUmGmCmU*mU*mU*mU is below 50%. Could you check?
Result :: true (1)

Query :: Does this molecule meet the criterion Avg % Insert < 50%? G000493: TTR sgRNA modified sequence, Human, SEQ ID No. 100; guide sequence of CR003368 (nucleic acid) guide: mA*mA*mG*rUrGrCrCrUrUrCrCrArGrUrArArGrArUrUrGrUrUrUrUrArGrAmGmCmUmAmGmAmAmAmUmAmGmCrArArGrUrUrArArArArUrArArGrGrCrUrArGrUrCrCrGrUrUrArUrCrAmAmCmUmUmGmAmAmAmAmAmGmUmGmGmCmAmCmCmGmAmGmUmCmGmGmUmGmCmU*mU*mU*mU
Result :: true (1)

Query :: Hello, I'm reviewing records and need to know if Avg % Insert of G000489: TTR sgRNA modified sequence, Human, SEQ ID No. 96; guide sequence of CR003344 (nucleic acid) guide: mU*mU*mU*rGrArCrCrArUrCrArGrArGrGrArCrArCrUrGrUrUrUrUrArGrAmGmCmUmAmGmAmAmAmUmAmGmCrArArGrUrUrArArArArUrArArGrGrCrUrArGrUrCrCrGrUrUrArUrCrAmAmCmUmUmGmAmAmAmAmAmGmUmGmGmCmAmCmCmGmAmGmUmCmGmGmUmGmCmU*mU*mU*mU is below 50%. Could you check?
Result :: false (0)

Query :: Is the reported Avg % Insert for G000485: TTR sgRNA modified sequence, Human, SEQ ID No. 92; guide sequence of CR003336 (nucleic acid) guide: mC*mC*mU*rCrCrUrCrUrGrCrCrUrUrGrCrUrGrGrArCrGrUrUrUrUrArGrAmGmCmUmAmGmAmAmAmUmAmGmCrArArGrUrUrArArArArUrArArGrGrCrUrArGrUrCrCrGrUrUrArUrCrAmAmCmUmUmGmAmAmAmAmAmGmUmGmGmCmAmCmCmGmAmGmUmCmGmGmUmGmCmU*mU*mU*mU strictly below 50%?
Result :: true (1)

Query :: Avg % Insert strictly < 50% for this molecule? G000481: TTR sgRNA modified sequence, Human, SEQ ID No. 88; guide sequence of CR003345 (nucleic acid) guide: mU*mC*mU*rArGrArArCrUrUrUrGrArCrCrArUrCrArGrGrUrUrUrUrArGrAmGmCmUmAmGmAmAmAmUmAmGmCrArArGrUrUrArArArArUrArArGrGrCrUrArGrUrCrCrGrUrUrArUrCrAmAmCmUmUmGmAmAmAmAmAmGmUmGmGmCmAmCmCmGmAmGmUmCmGmGmUmGmCmU*mU*mU*mU
Result :: true (1)

Query :: Given the entry G000498: TTR sgRNA modified sequence, Human, SEQ ID No. 105; guide sequence of CR003359 (nucleic acid) guide: mA*mG*mU*rGrArGrUrCrUrGrGrArGrArGrCrUrGrCrArGrUrUrUrUrArGrAmGmCmUmAmGmAmAmAmUmAmGmCrArArGrUrUrArArArArUrArArGrGrCrUrArGrUrCrCrGrUrUrArUrCrAmAmCmUmUmGmAmAmAmAmAmGmUmGmGmCmAmCmCmGmAmGmUmCmGmGmUmGmCmU*mU*mU*mU , would its reported Avg % Insert be below 50%?
Result :: false (0)
